Target: T1, Anti-CD28 Fab (SEQ ID NOs: 696, 697)
T1 construct: Biotinylated and captured on neutravidin coated plates in the phage ELISA
T1 sequence (VH, as listed by the source, chain 1 of 2): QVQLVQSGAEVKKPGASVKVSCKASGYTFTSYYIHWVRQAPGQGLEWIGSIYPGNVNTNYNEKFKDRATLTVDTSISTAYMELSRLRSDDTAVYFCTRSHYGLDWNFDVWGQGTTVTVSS
T1 sequence (VL, as listed by the source, chain 2 of 2): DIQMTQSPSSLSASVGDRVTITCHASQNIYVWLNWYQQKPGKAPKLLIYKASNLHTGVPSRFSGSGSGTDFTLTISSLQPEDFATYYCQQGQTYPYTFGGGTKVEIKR
Experiment: phage binding ELISA on captured anti-CD28 Fab; competitor: CD28 antigen pre-incubated in the well;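 also: clonal phage supernatants added briefly to wells preblocked with or without CD28, bound phage detected through an HRP-linked anti-M13 antibody, wells with blocking buffer alone as comparison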
MEASUREMENT TYPE: Anti-CD28 Fab signal in the presence of CD28 (phage binding ELISA)
Numbers only.

Solved entries:
TCAAGASWEWPACL (tested as crude phage supernatant) [Phage-1556]: 0.08
TCAAGAMYQWPECF (tested as crude phage supernatant) [Phage-1557]: 0.06
TCSAGATYKWPVCL (tested as crude phage supernatant) [Phage-1559]: 0.06

// below: Anti-CD28 Fab signal in the presence of CD28 (phage binding ELISA) requested for another binder
query: Fill blank: measured Anti-CD28 Fab signal in the presence of CD28 (phage binding ELISA) of the binder TCAAGATYSWPDCF (tested as crude phage supernatant) [Phage-1549] is ____.
result: 0.06

Where these numbers come from: patent US20260242478A1
